- assay.info: Partition coefficient (logP)
- Assay type: physicochemical
- particulars: octanol/water
Cut-off 1 on logP: below means T, at or above means F.

compound | label.class
CC(C)NC(=O)c1coc(C2C3CCC(O3)C2Cc2ccccc2CCC(=O)O)n1 (stereo not given) | T
O=C(O)CCc1ccccc1CC1C2CCC(O2)C1c1nc(C(=O)NCCCCc2ccc(O)cc2)co1 (stereo not given) | F
O=C(O)CCc1ccccc1CC1C2CCC(O2)C1c1nc(C(=O)NCCCCCO)co1 (stereo not given) | F
CC(C)(C)NC(=O)c1coc(C2C3CCC(O3)C2Cc2ccccc2CCC(=O)O)n1 (stereo not given) | T
CC(C)(C)CCCCNC(=O)c1coc(C2C3CCC(O3)C2Cc2ccccc2CCC(=O)O)n1 (stereo not given) | F
CSc1ccc(CCCCNC(=O)c2coc(C3C4CCC(O4)C3Cc3ccccc3CCC(=O)O)n2)cc1 (stereo not given) | F
O=C(O)CCc1ccccc1CC1C2CCC(O2)C1c1nc(C(=O)NCCC2CCCCC2)co1 (stereo not given) | F
CCCNC(=O)c1coc(C2C3CCC(O3)C2Cc2ccccc2CCC(=O)O)n1 (stereo not given) | T
O=C(O)CCc1ccccc1CC1C2CCC(O2)C1c1nc(C(=O)Nc2ccccc2)co1 (stereo not given) | F
CC(C)(C)CCNC(=O)c1coc(C2C3CCC(O3)C2Cc2ccccc2CCC(=O)O)n1 (stereo not given) | F
CCCCCCCCCCNC(=O)c1coc(C2C3CCC(O3)C2Cc2ccccc2CCC(=O)O)n1 (stereo not given) | F
O=C(O)CCc1ccccc1CC1C2CCC(O2)C1c1nc(C(=O)NCCCCc2ccc(Cl)cc2)co1 (stereo not given) | F
O=C(O)CCc1ccccc1CC1C2CCC(O2)C1c1nc(C(=O)NCCCCN2CCCCC2)co1 (stereo not given) | T
CC(C)(CCCCNC(=O)c1coc(C2C3CCC(O3)C2Cc2ccccc2CCC(=O)O)n1)C(=O)O (stereo not given) | T
O=C(O)CCc1ccccc1CC1C2CCC(O2)C1c1nc(C(=O)NCCCCc2ccccc2)co1 (stereo not given) | F

###

In this section, each of the compounds is paired with its reported T50.
- Test system: Mus musculus
- assay.info: In vivo duration of action required to prevent death in mice, after i.v. administration of U-46619 (2 mg/kg) at 0.2 mg/kg p.o.
- particulars: po

compound | T50
CCCCCN(C)C(=O)c1coc(C2C3CCC(O3)C2Cc2ccccc2CCC(=O)O)n1 (stereo not drawn) | 11.3 h
O=C(O)CCc1ccccc1CC1C2CCC(O2)C1c1nc(C(=O)NCCCCC2CCCCC2)co1 (stereo not drawn) | 22.5 h
CC(C)(C)CCNC(=O)c1coc(C2C3CCC(O3)C2Cc2ccccc2CCC(=O)O)n1 (stereo not drawn) | 13.5 h

###

- Organism: Homo sapiens
- assay.info: Inhibitory activity against platelet aggregation, induced by arachidonic acid in human platelet rich plasma
- Format: functional
- particulars: read-out: I50
pIC50: −log10 of the molar value.
Respond with t for pIC50 values of 8 and above, f for values below.

compound | label.class
O=C(O)Cc1ccccc1CCC1C2CCC(O2)C1c1nc(C(=O)NCCCCC2CCCCC2)co1 (centres undefined) | f
O=C(O)CCc1ccccc1CC1C2CCC(O2)C1c1nc(C(=O)NCCCCc2ccc(F)cc2)co1 (centres undefined) | t
O=C(O)CCc1ccccc1CC1C2CCC(O2)C1c1nc(C(=O)NCCCCC(=O)NC2CCCCC2)co1 (centres undefined) | f
O=C(O)CCc1ccccc1CC1C2CCC(O2)C1c1nc(C(=O)OCCCCC2CCCCC2)co1 (centres undefined) | t
O=C(NCCCCC1CCCCC1)c1coc(C2C3CCC(O3)C2Cc2ccccc2CCCO)n1 (centres undefined) | f
